These entries and their values trace back to paper PMC7498317.

# Study system: T1, GapR (Caulobacter crescentus, UniProt B8H4R9 1-89)
# T1 sequence: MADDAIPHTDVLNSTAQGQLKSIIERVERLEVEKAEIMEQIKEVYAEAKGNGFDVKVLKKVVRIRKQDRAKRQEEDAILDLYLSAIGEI
# Assay comment: ITC; ITC: 50 mM sodium phosphate pH 7.0, 200 mM NaCl, 4 C; 25 uM GapR tetramer in cell, 0.25 mM DNA injected; NMR: 0.1 mM tetramer, 0.02-0.1 mM DNA
# Protocol conditions: protein: recombinant; tags: C-terminal His6 (pET-21a); chain copies: 4; blunt
Endpoint name: pKd
Worth noting: pKd values are minus log10 of concentrations stated in mol/L.

Please report the recorded pKd for 5ApT (dsDNA) DNA 1: CCGATATATATATCGC DNA 2: GCGATATATATATCGG .
7.91

Report pKd for 11AT (dsDNA) DNA 1: TTAAAATTAAA DNA 2: TTTAATTTTAA please.
7.91

# lookup: pKd of seq2 (dsDNA) DNA 1: CGTGTTTTCGG DNA 2: CCGAAAACACG
7.14

Field request: pKd | item: 10A (dsDNA) DNA 1: CCGAAAAAAAAAACGC DNA 2: GCGTTTTTTTTTTCGG
7.94

Please give the measured pKd for this binder: seq1 (dsDNA) DNA 1: GCGAAATTGATCG DNA 2: CGATCAATTTCGC
7.14
